The measurements presented in this section are drawn from the supplement of paper PMC9112550.

Parameter: shrunken log2 fold change. Scope: all listed entries.
tested on: Escherichia coli TOP10; experiment: shrunken log2 fold change of peptide-encoding DNA abundance (4.5 h post-induction vs induction); higher = less antimicrobial activity (less host growth inhibition); details: time post-induction: 4.5 h; library: site-saturation at positions 5, 18, 19, 20;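 further: peptides expressed intracellularly from a pBAD plasmid library in pooled LB shake-flask culture, induced with 0.3% L-arabinose, DNA abundance read by NGS, three biological replicates, DESeq2 with apeglm shrinkage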
recorded endpoint: shrunken log2 fold change

INSERT INTO results (sequence_entry, experimental_result) VALUES
  ('RRIRLRPPRLPRPRPRPCDWPRP', 0.201),
  ('RRIRGRPPRLPRPRPRPEDPPRP', 1.38),
  ('RRIRDRPPRLPRPRPRPVPCPRP', 0.0758),
  ('RRIRIRPPRLPRPRPRPIEWPRP', -0.123),
  ('RRIRNRPPRLPRPRPRPYPTPRP', -0.074),
  ('RRIRMRPPRLPRPRPRPESHPRP', 0.076),
  ('RRIRHRPPRLPRPRPRPKSIPRP', -0.136),
  ('RRIRLRPPRLPRPRPRPAVGPRP', -0.0315),
  ('RRIRIRPPRLPRPRPRPMKYPRP', -0.104),
  ('RRIRNRPPRLPRPRPRPNDRPRP', -0.218),
  ('RRIRFRPPRLPRPRPRPCSNPRP', -0.0316),
  ('RRIRYRPPRLPRPRPRPARSPRP', 0.134),
  ('RRIRPRPPRLPRPRPRPMHVPRP', 0.038),
  ('RRIRRRPPRLPRPRPRPLCYPRP', -0.236),
  ('RRIRIRPPRLPRPRPRPVWFPRP', -0.125),
  ('RRIRERPPRLPRPRPRPWPMPRP', 0.00819),
  ('RRIRQRPPRLPRPRPRPDPGPRP', -0.00151),
  ('RRIRMRPPRLPRPRPRPIDIPRP', 0.476),
  ('RRIRTRPPRLPRPRPRPDVVPRP', -0.106),
  ('RRIRCRPPRLPRPRPRPLMNPRP', -0.645),
  ('RRIRCRPPRLPRPRPRPPCWPRP', 0.264),
  ('RRIRCRPPRLPRPRPRPFIGPRP', -0.228),
  ('RRIRARPPRLPRPRPRPPWSPRP', 0.585),
  ('RRIRRRPPRLPRPRPRPFPCPRP', 0.038),
  ('RRIRHRPPRLPRPRPRPMFWPRP', 0.0114),
  ('RRIRPRPPRLPRPRPRPWNSPRP', -0.163),
  ('RRIRHRPPRLPRPRPRPAGPPRP', 0.056),
  ('RRIRCRPPRLPRPRPRPMERPRP', -0.00088),
  ('RRIRMRPPRLPRPRPRPRGPPRP', 0.684),
  ('RRIRCRPPRLPRPRPRPRLDPRP', 0.154),
  ('RRIRERPPRLPRPRPRPCSDPRP', -0.5),
  ('RRIRHRPPRLPRPRPRPQQGPRP', -0.14);
